Tested on: Hepatitis C virus
testMethodNotes: Antiviral activity against Hepatitis C virus subtype 1a by cell based replicon assay
Assay type: functional, organism-based, Hepacivirus hominis
testParameters: Hepatitis C virus, subtype 1a; read-out: EC50
propertyLabel: EC50 (µM)
Enter your answer as a number in µM; do not include the unit.

CNC(=O)c1cnc(N2CCN(S(=O)(=O)c3ccc(OC(F)(F)F)cc3)C(C(=O)NCc3ccc(OC(F)(F)F)cc3)C2)cn1 (racemic) = 2.23

Kindly consider the entry below.
Observed EC50 on Hepatitis C virus for `CCc1ccc(S(=O)(=O)N2CCN(c3cc(OC)nc(OC)n3)C[C@@H]2C(=O)NCc2ccc(OC)cc2)cc1` , please.
6.2

###

System: Hepatitis C virus
testMethodNotes: Antiviral activity against Hepatitis C virus expressing NS5B Y452H mutant by cell based replicon assay
Type: functional, organism-based, Hepacivirus hominis
propertyLabel: pEC50
Remember the convention: pEC50 equals -log10 of concentration in molar.

# get_value(readout='pEC50', item= `CC[C@H](C)NC(=O)c1ccc(N2CCN(S(=O)(=O)c3ccc(OC(F)(F)F)cc3)[C@@H](C(=O)NCc3ccc(OC(F)(F)F)cc3)C2)nn1` )
6.40

###

testMethodNotes: Inhibition of Hepatitis C virus subtype 1a wild-type NS5B expressed in Escherichia coli BL21(DE3) assessed as decrease in [3H]-UTP incorporation using polyA template/biotin-labeled dT primer by SPA method
propertyLabel: IC50 (µM)
Enter your answer as a number in µM; do not include the unit.

# get_value(readout='IC50', item= CCc1ccc(S(=O)(=O)N2CCN(c3cc(OC)nc(OC)n3)CC2C(=O)NCc2ccc(OC)cc2)cc1 (racemic) )
12.5

###

Tested on: Hepatitis C virus
testMethodNotes: Antiviral activity against Hepatitis C virus subtype 1a by cell based replicon assay
Type: functional, organism-based, Hepacivirus hominis
testParameters: Hepatitis C virus, subtype 1a; read-out: EC50
propertyLabel: EC50

Past entries and their recorded results:
CC(C)NC(=O)c1ccc(N2CCN(S(=O)(=O)c3ccc(OC(F)(F)F)cc3)[C@@H](C(=O)NCc3ccc(OC(F)(F)F)cc3)C2)nn1 = 0.139 µM
COc1cc(N2CCN(S(=O)(=O)c3cccc(C(F)(F)F)c3)C(C(=O)NCc3ccc(OC(F)(F)F)cc3)C2)nc(OC)n1 (racemic) = 53 µM

Kindly consider the entry below.
# get_value(readout='EC50', item= CNC(=O)c1ccc(N2CCN(S(=O)(=O)c3ccc(OC(F)(F)F)cc3)C(C(=O)NCc3ccc(OC(F)(F)F)cc3)C2)nn1 (racemic) )
0.33 µM

###

System: Hepatitis C virus
testMethodNotes: Antiviral activity against Hepatitis C virus subtype 1a by cell based replicon assay
Format: functional, organism-based, Hepacivirus hominis
testParameters: Hepatitis C virus, subtype 1a; read-out: EC50
pEC50: −log10 of the molar value.
Assign class by pEC50: not lower than 5 means met; lower than 5 means not met.

COC(=O)c1cnc(N2CCN(S(=O)(=O)c3ccc(OC(F)(F)F)cc3)C(C(=O)NCc3ccc(OC(F)(F)F)cc3)C2)cn1 (racemic) = met
CCc1ccc(S(=O)(=O)N2CCN(c3cc(OC)nc(OC)n3)CC2C(=O)NCc2ccc(C)cc2)cc1 (racemic) = not met
COc1ccc(S(=O)(=O)N2CCN(c3cc(OC)nc(OC)n3)CC2C(=O)NCc2ccc(OC(F)(F)F)cc2)cc1 (racemic) = not met

Determine whether measured pEC50 meets or exceeds 5 for CCc1ccc(S(=O)(=O)N2CCN(c3cc(OC)nc(OC)n3)CC2C(=O)NCc2ccc(OC)c(OC)c2)cc1 (racemic)
not met

Determine whether measured pEC50 meets or exceeds 5 for COc1cc(N2CCN(S(=O)(=O)c3ccc(-c4ccccc4)cc3)C(C(=O)NCc3ccc(OC(F)(F)F)cc3)C2)nc(OC)n1 (racemic)
not met

Determine whether measured pEC50 meets or exceeds 5 for CCc1ccc(S(=O)(=O)N2CCN(c3cc(OC)nc(OC)n3)CC2C(=O)NCc2ccc(-c3cccs3)cc2)cc1 (racemic)
not met

###

System: Hepatitis C virus
testMethodNotes: Antiviral activity against Hepatitis C virus subtype 1a by cell based replicon assay
Format: functional, organism-based, Hepacivirus hominis
testParameters: Hepatitis C virus, subtype 1a; read-out: EC50
propertyLabel: EC50 (µM)
Enter your answer as a number in µM; do not include the unit.

Past entries and their recorded results:
COc1cc(N2CCN(S(=O)(=O)c3ccc(OC(F)(F)F)cc3)C(C(=O)NCc3ccc(OC(F)(F)F)cc3)C2)nc(OC)n1 (racemic) = 8.1
CCc1ccc(S(=O)(=O)N2CCN(c3cc(OC)nc(OC)n3)CC2C(=O)NCc2ccc(OC)cc2OC)cc1 (racemic) = 12.4
CCC(C)(C)NC(=O)c1ccc(N2CCN(S(=O)(=O)c3ccc(OC(F)(F)F)cc3)C(C(=O)NCc3ccc(OC(F)(F)F)cc3)C2)nn1 (racemic) = 0.46
CCc1ccc(S(=O)(=O)N2CCN(c3cc(OC)nc(OC)n3)CC2C(=O)NCc2ccc(Cl)cc2)cc1 (racemic) = 30.8
CCc1ccc(S(=O)(=O)N2CCN(c3cc(OC)nc(OC)n3)CC2C(=O)NCc2ccc(OC)cc2)cc1 (racemic) = 23

# get_value(readout='EC50', item= COc1cc(N2CCN(S(=O)(=O)c3cccc(OC(F)(F)F)c3)C(C(=O)NCc3ccc(OC(F)(F)F)cc3)C2)nc(OC)n1 (racemic) )
58

###

Test system: Hepatitis C virus
testMethodNotes: Antiviral activity against Hepatitis C virus subtype 1a by cell based replicon assay
Format: functional, organism-based, Hepacivirus hominis
testParameters: Hepatitis C virus, subtype 1a; read-out: EC50
propertyLabel: EC50 (µM)
Enter your answer as a number in µM; do not include the unit.

CCc1ccc(S(=O)(=O)N2CCN(c3cc(OC)nc(OC)n3)CC2C(=O)NCc2c(C)nn(-c3ccccc3)c2C)cc1 (racemic) = 20.8
CCc1ccc(S(=O)(=O)N2CCN(c3cc(OC)nc(OC)n3)C[C@H]2C(=O)NCc2ccc(OC)cc2)cc1 = 14.1
CCc1ccc(S(=O)(=O)N2CCN(c3cc(OC)nc(OC)n3)CC2C(=O)NCc2ccc(OC(F)(F)F)cc2)cc1 (racemic) = 9.2

# get_value(readout='EC50', item= COc1cc(N2CCN(S(=O)(=O)c3ccc(OC)c(OC)c3)C(C(=O)NCc3ccc(OC(F)(F)F)cc3)C2)nc(OC)n1 (racemic) )
13

# get_value(readout='EC50', item= COc1cc(N2CCN(S(=O)(=O)c3cccc(C)c3)C(C(=O)NCc3ccc(OC(F)(F)F)cc3)C2)nc(OC)n1 (racemic) )
41

# get_value(readout='EC50', item= COC(=O)c1ccc(N2CCN(S(=O)(=O)c3ccc(OC(F)(F)F)cc3)C(C(=O)NCc3ccc(OC(F)(F)F)cc3)C2)nn1 (racemic) )
3.9

# get_value(readout='EC50', item= `CNC(=O)c1ccc(N2CCN(S(=O)(=O)c3ccc(OC(F)(F)F)cc3)[C@@H](C(=O)NCc3ccc(OC(F)(F)F)cc3)C2)nn1` )
0.22
